assay: protein stability index of a GFP-peptide fusion (yeast GPS) (PSI 1-4); higher = more stable; sorted into four equal gates, so the index is relative within each strain; settings: doa10∆
Outcome label depends on protein stability index relative to 3: at/above gives True, below gives False.

seq text | qualitative label
TVAHIQYDFKAVLEEND [RPN14] | False
DLWNNFGNIMDNLLEMS [RRP6] | True
VDTSTELESMLEDLKNT [RRP6] | True
ADYRLILTGTPLQNNLP [SNF2] | False
LSSIEASLKIKNATDLQ [SMC3] | False
ITKFALFAESHDVLQKL [YML103C/NUP188] | False
ILQNEHDYWNKIMQSIS [SRB4] | False
IFIRQLKENEENEDGNI [BRR2] | True
QYTKDEQFYTKDIIDPK [RPN2] | True
MDKPLNFRILKSFTNDK [SRB5] | True
LYEKDIVPSMTHLEIEP [RET1] | False

Measured values drawn from the supplement of paper PMC9732359 for this set.
